experimental system: MASP-2 CCP2-SP (Homo sapiens (Human), UniProt O00187)
Sequence (O00187 445-686): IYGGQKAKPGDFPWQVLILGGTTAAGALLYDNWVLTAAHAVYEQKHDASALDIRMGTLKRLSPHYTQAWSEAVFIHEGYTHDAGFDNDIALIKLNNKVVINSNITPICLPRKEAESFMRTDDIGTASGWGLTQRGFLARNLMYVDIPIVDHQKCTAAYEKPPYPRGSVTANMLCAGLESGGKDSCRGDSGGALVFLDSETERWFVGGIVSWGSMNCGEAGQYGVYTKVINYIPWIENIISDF
Sequence (O00187 364-432 partner): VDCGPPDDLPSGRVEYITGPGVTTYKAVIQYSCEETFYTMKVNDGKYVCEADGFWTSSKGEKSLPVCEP
measurement description: MASP-2 co-crystallization, X-ray crystallography and structure analysis (H-bonds, van der Waals contacts)
Parameters: unit not given beside the values
condition context: Table A5-1 pharmacophore: distance between elements, S2/S1 region
Text: This example illustrates the preparation of recombinant MASP-2 protein, based on UniProt O00187, human mannan-binding lectin serine protease 2. Expression constructs for human MASP-2 CCP2-SP and CCP2-SP-6HIS were generated for recombinant expression in E. coli cells. […]
For each of the compounds below, state its d(H4,O2).

## Task Please look up its d(H4,O2): C[C@H](NC(=O)[C@H](N)CCc1ccccc1)C(=O)NCc1ccc(N)nc1.Cl.Cl [1007_1]
## Result 2.73

## Task Please look up its d(H4,O2): Cc1nc(N)ccc1CNC(=O)[C@H](C)NC(=O)[C@H]1C[C@@H](c2cccc3ccccc23)CCN1.Cl.Cl [1297_2]
## Result 3.62

## Task Please look up its d(H4,O2): CC(=O)Nc1ccc(CCNC(CCc2ccccc2)C(=O)NC(C)C(=O)NCc2ccc(C(=N)N)cc2)cc1.Cl.Cl (stereo not shown) [1345_1]
## Result 3.57

## Task Please look up its d(H4,O2): C[C@H](NC(=O)[C@H]1C[C@@H](c2ccccc2)CCN1)C(=O)NCc1cc(Cl)ccc1O.Cl [1078_16]
## Result 2.69

## Task Please look up its d(H4,O2): Cc1nc(N)ccc1CNC(=O)[C@H](C)NC(=O)[C@H]1C[C@H](Cc2cccc(Cl)c2)CN1.Cl.Cl [1328_2]
## Result 3.84

## Task Please look up its d(H4,O2): C[C@H](NC(=O)[C@H]1C[C@@H](c2ccccc2)CCN1)C(=O)NCc1cc(Cl)ccc1O.Cl [1078_14]
## Result 2.59

## Task Please look up its d(H4,O2): Cc1nc(N)ccc1CNC(=O)[C@H](C)NC(=O)[C@H]1C[C@@H](Cc2ccccc2)CCN1 [compound 1353]
## Result 3.72

###

experimental system: MASP-2 CCP2-SP (Homo sapiens (Human), UniProt O00187)
measurement description: MASP-2 co-crystallization, X-ray crystallography and structure analysis (H-bonds, van der Waals contacts)
condition context: Table A7-1; between pharmacophore elements of the bound compound
Where a name gives a salt, the structure may show the parent alone.
Kind request: treat 50 as inclusive, so Pharmacophore torsion angle a(H4, O1, O2, H3) at 50 or higher is 1, anything lower is -1.

## Task Exam item: decide whether the reported Pharmacophore torsion angle a(H4, O1, O2, H3) for Cc1cccc([C@H]2CN[C@@H](C(=O)N[C@@H](C)C(=O)NCc3ccc(N)nc3C)C2)c1 [compound 1257, Dihydrochloride] is at least 50.
## Result 1

## Task Exam item: decide whether the reported Pharmacophore torsion angle a(H4, O1, O2, H3) for Cc1nc(N)ccc1CNC(=O)[C@H](C)NC(=O)[C@H]1C[C@H](Cc2cccc(Cl)c2)CN1.Cl.Cl [1328_3] is at least 50.
## Result -1

## Task Exam item: decide whether the reported Pharmacophore torsion angle a(H4, O1, O2, H3) for C[C@H](NC(=O)[C@H]1C[C@@H](c2ccccc2)CN1)C(=O)NCc1ccc2c(N)nccc2c1.Cl.Cl [1089_A] is at least 50.
## Result 1

## Task Exam item: decide whether the reported Pharmacophore torsion angle a(H4, O1, O2, H3) for Cc1nc(N)ccc1CNC(=O)[C@H](C)NC(=O)[C@H]1C[C@H](Cc2ccc3ccccc3c2)CN1 is at least 50.
## Result 1

## Task Exam item: decide whether the reported Pharmacophore torsion angle a(H4, O1, O2, H3) for C[C@H](NC(=O)[C@H](N)CCc1cccc(Cl)c1)C(=O)NCc1ccc(C(=N)N)cc1 is at least 50.
## Result -1

## Task Exam item: decide whether the reported Pharmacophore torsion angle a(H4, O1, O2, H3) for Cc1nc(N)ccc1CNC(=O)[C@H](C)NC(=O)[C@H]1C[C@H](Cc2ccccc2Br)CN1.O=C(O)C(F)(F)F.O=C(O)C(F)(F)F [1372_A] is at least 50.
## Result 1
